- assay.procedure: Toxicity in peroral dosed mouse after 14 days
- Type: organism-based
- condition.details: in vivo, po
reported.property: LD50 at 336 h

Examples from the recorded data:
| cpd.smiles | LD50 at 336 h |
| --- | --- |
| c1csc(-c2ccc(-c3ncncc3-c3csc4ccccc34)s2)c1 | 90 mg/kg |
| c1csc(-c2ccc(-c3ncncc3-c3cccs3)s2)c1 | 160 mg/kg |

// input: 2 compounds below; output: LD50 at 336 h for each
1. c1ccc(-c2ccc(-c3ncncc3-c3csc4ccccc34)s2)cc1
2. c1ccc2c(-c3cncnc3)csc2c1

1: 45 mg/kg; 2: 700 mg/kg

###

- Test system: Mycobacterium tuberculosis
- assay.procedure: Antimycobacterial activity against Mycobacterium tuberculosis H37Rv after 10 days by microbroth dilution method
- Assay type: functional
- condition.details: 240 h
Answer each item with its documented MIC.
Answers are plain numbers, in µM.

Examples from the recorded data:
| cpd.smiles | reading.unit | MIC |
| --- | --- | --- |
| c1csc(-c2cncnc2)c1 | µM | 38.5 |
| c1ccc(-c2ccc(-c3ncncc3-c3cc4ccccc4s3)s2)cc1 | µM | 8.37 |
| c1ncc(-c2ccsc2)cn1 | µM | 77.1 |
| c1ccc(-c2ccc(-c3cncnc3)s2)cc1 | µM | 26.2 |
| c1csc(-c2ncncc2-c2cc3ccccc3s2)c1 | µM | 21.2 |

// input: 2 compounds below; output: MIC for each
1. c1csc(-c2ccc(-c3ncncc3-c3csc4ccccc34)s2)c1
2. c1ccc2c(-c3cncnc3)csc2c1

1. 0.98
2. 7.07

// input: 6 compounds below; output: MIC for each
1. Brc1ccc(-c2ncncc2Br)s1
2. c1ccc(-c2ccc(-c3ncncc3-c3ccsc3)s2)cc1
3. Brc1ccc(-c2cncnc2)s1
4. c1csc(-c2ccc(-c3ccncn3)s2)c1
5. Brc1ccc(-c2ncncc2-c2cc3ccccc3s2)s1
6. c1csc(-c2ccc(-c3ncncc3-c3ccsc3)s2)c1

1. 9.69
2. 19.5
3. 51.8
4. 51.2
5. 33.5
6. 19.1

###

Answer each item with its documented log10 of MIC.
- Tested on: Mycobacterium tuberculosis
- assay.procedure: Antimycobacterial activity against Mycobacterium tuberculosis H37Rv after 10 days by microbroth dilution method
- Type: functional
- condition.details: 240 h
Could you please treat all values as log10 of MIC in µM?

| compound | log10 of MIC |
| --- | --- |
| c1ccc(-c2ccc(-c3ncncc3-c3csc4ccccc34)s2)cc1 | -0.40 |
| c1ccc2sc(-c3cncnc3)cc2c1 | 1.77 |
| NC(=O)c1cnccn1 [PYRAZINAMIDE] | 2.01 |
| Brc1ccc(-c2ncncc2-c2ccsc2)s1 | 1.29 |

// input: 7 compounds below; output: log10 of MIC for each
1. Brc1cncnc1
2. Brc1ccc(-c2ncncc2-c2csc3ccccc23)s1
3. c1csc(-c2ccc(-c3ncncc3-c3cccs3)s2)c1
4. NNC(=O)c1ccncc1 [ISONIAZID]
5. c1csc(-c2ncncc2-c2csc3ccccc23)c1
6. c1csc(-c2ccc(-c3cncnc3)s2)c1
7. c1csc(-c2cncnc2-c2cccs2)c1

1: 1.90; 2: 0.92; 3: 0.33; 4: -0.14; 5: 1.63; 6: 1.41; 7: 1.10

// input: 3 compounds below; output: log10 of MIC for each
1. c1csc(-c2ccc(-c3ncncc3-c3cc4ccccc4s3)s2)c1
2. c1ccc(-c2ccc(-c3ncncc3-c3cccs3)s2)cc1
3. Brc1ccc(-c2ncncc2-c2cccs2)s1

1. 1.52
2. 1.59
3. 1.59

I would be grateful if you could share the reported log10 of MIC for `c1csc(-c2ncncc2-c2ccsc2)c1` . 1.41
